target-or-test-system: Receptor-type tyrosine-protein kinase FLT3 (Homo sapiens)
assay-remarks: In Vitro Kinase Assay: The inhibition of the FLT3 kinase activity was measured with homogeneous, time-resolved fluorescence (HTRF) assays. Recombinant proteins containing the FLT3 kinase domain were purchased from Invitrogen (Carlsbad, Calif., USA). Optimal enzyme, ATP, and substrate concentrations were established with the HTRF KinEASE kit (Cisbio, France) according to the manufacturer's instructions. The FLT3 enzymes were mixed with serially diluted compounds and peptide substrates in a kinase reaction buffer (50 mM HEPES (pH 7.0), 500 μM ATP, 0.1 mM sodium orthovanadate, 5 mM MgCl2, 1 mM DTT, 0.01% bovine serum albumin (BSA), and 0.02% NaN3). Ten microliters of the total volume of the kinase reaction were added to the wells of a 96-well assay plate. The kinase reactions were incubated for 30 min at 25° C. For the detection of the phospho-substrate, the Eu3b-Cryptate-conjugated mouse monoclonal antibody (PT66) and the streptavidin-XL665 (SA-XL) were added, and the reactions were then incubated for 1 hour at 25° C. The signal was measured on an Victor X5 multi-label reader (PerkinElmer, Waltham, Mass., USA).
property-label: IC50 (nM)
Dear colleague, please return just the value in nM, with no unit written.

Short answer on Receptor-type tyrosine-protein kinase FLT3 (Homo sapiens) for `O=C1Nc2ccccc2/C1=C1/Nc2ccccc2/C1=N\OCCN1CCCCC1` , IC50: 251

Measured on Receptor-type tyrosine-protein kinase FLT3 (Homo sapiens), `NC1CCN(CCO/N=C2/C(=C3/C(=O)Nc4ccc(F)cc43)Nc3ccc(F)cc32)CC1` has a documented IC50 of 81.5

Lab note: molecule `CN1CCN(CCO/N=C2/C(=C3/C(=O)Nc4ccc(I)cc43)Nc3ccccc32)CC1` tested on Receptor-type tyrosine-protein kinase FLT3 (Homo sapiens); recorded IC50 was 5.8

Assay Receptor-type tyrosine-protein kinase FLT3 (Homo sapiens), sample `O=C1Nc2ccc([N+](=O)[O-])cc2/C1=C1/Nc2ccc(F)cc2/C1=N\OCCN1CCNCC1` , IC50 read: 35.5

IC50 for Receptor-type tyrosine-protein kinase FLT3 (Homo sapiens) with input `O=C1Nc2ccc(Cl)cc2/C1=C1/Nc2ccccc2/C1=N\OCCN1CCNCC1` equals 1.3

The observed IC50 for `CN1CCN(CCO/N=C2/C(=C3/C(=O)Nc4ccc(F)cc43)Nc3ccc(F)cc32)CC1` when tested with Receptor-type tyrosine-protein kinase FLT3 (Homo sapiens) stands at 40.4

Note to self: IC50 of `CN1CCN(CCO/N=C2/C(=C3/C(=O)Nc4ccc([N+](=O)[O-])cc43)Nc3ccc(F)cc32)CC1` with Receptor-type tyrosine-protein kinase FLT3 (Homo sapiens) was 35.5

Lab entry: Receptor-type tyrosine-protein kinase FLT3 (Homo sapiens) assay, molecule `COC(=O)c1ccc2c(c1)/C(=C1/Nc3ccccc3/C1=N\OCCN1CCOCC1)C(=O)N2` , IC50 = 253

For `O=C1Nc2ccc(F)cc2/C1=C1/Nc2ccccc2/C1=N\OCCN1CCNCC1` on Receptor-type tyrosine-protein kinase FLT3 (Homo sapiens), measured IC50 was 0.9

* * *

target-or-test-system: Receptor-type tyrosine-protein kinase FLT3 (Homo sapiens, UniProt P36888)
Sequence (P36888 whole entry): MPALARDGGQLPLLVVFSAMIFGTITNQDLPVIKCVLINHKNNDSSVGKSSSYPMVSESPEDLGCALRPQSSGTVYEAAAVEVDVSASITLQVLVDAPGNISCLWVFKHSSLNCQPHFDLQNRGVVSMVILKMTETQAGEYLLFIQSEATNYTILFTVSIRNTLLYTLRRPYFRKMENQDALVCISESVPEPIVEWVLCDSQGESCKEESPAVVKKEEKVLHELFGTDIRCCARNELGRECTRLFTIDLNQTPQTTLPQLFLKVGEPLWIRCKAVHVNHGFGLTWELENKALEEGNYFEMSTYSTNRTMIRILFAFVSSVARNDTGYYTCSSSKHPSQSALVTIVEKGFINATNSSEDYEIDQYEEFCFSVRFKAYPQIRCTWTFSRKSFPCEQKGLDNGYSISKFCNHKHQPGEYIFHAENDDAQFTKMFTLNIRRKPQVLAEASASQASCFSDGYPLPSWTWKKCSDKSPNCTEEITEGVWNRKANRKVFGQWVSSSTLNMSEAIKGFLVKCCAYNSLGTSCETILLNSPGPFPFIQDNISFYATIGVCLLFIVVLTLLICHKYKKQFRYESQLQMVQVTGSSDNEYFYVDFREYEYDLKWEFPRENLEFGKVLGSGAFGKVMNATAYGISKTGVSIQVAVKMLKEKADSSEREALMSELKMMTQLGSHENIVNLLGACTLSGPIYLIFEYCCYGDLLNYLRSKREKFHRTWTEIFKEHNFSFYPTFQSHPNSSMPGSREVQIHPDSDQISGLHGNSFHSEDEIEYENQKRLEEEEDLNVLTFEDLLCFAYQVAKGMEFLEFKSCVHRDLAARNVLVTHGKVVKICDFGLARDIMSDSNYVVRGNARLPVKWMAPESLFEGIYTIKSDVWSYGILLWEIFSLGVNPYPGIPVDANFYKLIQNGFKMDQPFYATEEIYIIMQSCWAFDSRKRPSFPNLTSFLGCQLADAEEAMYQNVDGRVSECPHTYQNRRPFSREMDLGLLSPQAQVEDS
assay-remarks: In Vitro Kinase Assay: The inhibition of the FLT3 kinase activity was measured with homogeneous, time-resolved fluorescence (HTRF) assays. Recombinant proteins containing the FLT3 kinase domain were purchased from Invitrogen (Carlsbad, Calif., USA). Optimal enzyme, ATP, and substrate concentrations were established with the HTRF KinEASE kit (Cisbio, France) according to the manufacturer's instructions. The FLT3 enzymes were mixed with serially diluted compounds and peptide substrates in a kinase reaction buffer (50 mM HEPES (pH 7.0), 500 μM ATP, 0.1 mM sodium orthovanadate, 5 mM MgCl2, 1 mM DTT, 0.01% bovine serum albumin (BSA), and 0.02% NaN3). Ten microliters of the total volume of the kinase reaction were added to the wells of a 96-well assay plate. The kinase reactions were incubated for 30 min at 25° C. For the detection of the phospho-substrate, the Eu3b-Cryptate-conjugated mouse monoclonal antibody (PT66) and the streptavidin-XL665 (SA-XL) were added, and the reactions were then incubated for 1 hour at 25° C. The signal was measured on an Victor X5 multi-label reader (PerkinElmer, Waltham, Mass., USA).
property-label: pIC50
Would you please state pIC50, meaning minus log10 of the concentration in mol/L, as a bare number?

Sample `O=C1Nc2ccc(Br)cc2/C1=C1/Nc2ccccc2/C1=N\OCCN1CCNCC1` ; pIC50 observed: 9.00

response.value for `O=C1Nc2ccc([N+](=O)[O-])cc2/C1=C1/Nc2ccc(F)cc2/C1=N\OCCN1CCCCC1` (field: pIC50) = 6.34

Lab note: `O=C1Nc2ccc([N+](=O)[O-])cc2/C1=C1/Nc2ccc(F)cc2/C1=N\OCCN1CCCC1` gave pIC50 of 6.95

According to the records, this compound `O=C1Nc2ccccc2/C1=C1/Nc2ccccc2/C1=N\OCCN1CCCC1` displays pIC50 of 7.28

Lab note: measured pIC50 of `O=C1Nc2ccc(F)cc2/C1=C1/Nc2ccc(F)cc2/C1=N\OCCN1CCNCC1` was 7.58

Documented pIC50 of `CN1CCN(CCO/N=C2/C(=C3/C(=O)Nc4ccc(F)cc43)Nc3ccccc32)CC1` : 8.49

// `CN1CCN(CCO/N=C2/C(=C3/C(=O)Nc4ccccc43)Nc3ccccc32)CC1` : pIC50 value = 8.13

pIC50 in this record for `O=C1Nc2ccc(I)cc2/C1=C1/Nc2ccccc2/C1=N\OCCN1CCNCC1` : 8.74

For record `CN1CCN(CCO/N=C2/C(=C3/C(=O)Nc4ccc(Cl)cc43)Nc3ccccc32)CC1` the listed pIC50 is 8.62
